For each of the compounds below, state its MIC50.
# Tested on: Pseudomonas aeruginosa
# Assay: Antibacterial activity against Pseudomonas aeruginosa ATCC 27853 after 18 hrs by serial microdilution broth assay
# Type: functional
# Assay setup: ATCC 27853, 18 h
Give the value in µg/mL but do not write µg/mL after it.

[in] Notebook: pull reported MIC50 for Pseudomonas aeruginosa, entry `CN(C)[C@@H]1C(O)=C(C(N)=O)C(=O)[C@@]2(O)C(O)=C3C(=O)c4c(O)cccc4[C@@](C)(O)[C@H]3C[C@@H]12`
[out] 3

[in] Missing value: MIC50, Pseudomonas aeruginosa, entry COc1cc(NC(C)CCCNC(=O)Nc2cccc(O)c2)c2ncccc2c1 (stereo unspecified) . Fill in?
[out] 50

[in] Request body: readout MIC50, system Pseudomonas aeruginosa, query COc1cc(NC(C)CCCNC(=O)Nc2cc(C(F)(F)F)cc(C(F)(F)F)c2)c2ncccc2c1 (stereo unspecified) . Return the value.
[out] 12.5

[in] Record lookup: for Pseudomonas aeruginosa, what MIC50 belongs to COc1cc(NC(C)CCCN)c2ncccc2c1 (stereo unspecified) ?
[out] 65

[in] Which MIC50 is reported with Pseudomonas aeruginosa for this entry: COc1cc(NC(C)CCCNC(=O)Nc2ccc(C(F)(F)F)cc2)c2ncccc2c1 (stereo unspecified) ?
[out] 25

[in] Query for Pseudomonas aeruginosa: what MIC50 does the record show for COc1cc(NC(C)CCCNC(=O)Nc2ccc(Br)cc2)c2ncccc2c1 (stereo unspecified) ?
[out] 25

---

Provide the recorded Activity for the entries that follow.
# Assay: Antioxidant activity assessed as DPPH radical scavenging activity at 100 uM after 60 mins relative to control
# Assay type: functional
Numeric answer only, unit % assumed.

[in] Record request: Activity value, item COc1cc(NC(C)CCCNC(=O)NNC(=O)Nc2ccc(O)cc2)c2ncccc2c1 (stereo not given)
[out] 100

[in] So what does the record say about Activity for COc1cc(NC(C)CCCNC(=O)Nc2ccc(O)cc2)c2ncccc2c1 (stereo not given) ?
[out] 94.5

[in] Endpoint output: Activity of COc1cc(NC(C)CCCNC(=O)NNC(=O)Nc2cccc(F)c2)c2ncccc2c1 (stereo not given) . Value?
[out] 100

[in] GET /values?readout=Activity&item= COc1cc(NC(C)CCCNC(=O)Nc2cccc(F)c2)c2ncccc2c1 (stereo not given)
[out] 26

[in] Need Activity, item COc1cc(NC(C)CCCNC(=O)NNC(=O)Nc2ccc(C(F)(F)F)cc2)c2ncccc2c1 (stereo not given)
[out] 96.1

[in] Which Activity is listed for COc1cc(NC(C)CCCNC(=O)Nc2cc(C(F)(F)F)cc(C(F)(F)F)c2)c2ncccc2c1 (stereo not given) ?
[out] 55.2

[in] Report Activity for COc1cc(NC(C)CCCNC(=O)NNC(=O)Nc2ccc(Br)cc2)c2ncccc2c1 (stereo not given) please.
[out] 99

[in] Looking for the measured Activity of CC(Cc1ccc(O)c(O)c1)C(C)Cc1ccc(O)c(O)c1 (stereo not given) [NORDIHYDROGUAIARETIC ACID] , can you help?
[out] 97

[in] Sample COc1cc(NC(C)CCCNC(=O)NNC(=O)Nc2ccc(Cl)cc2)c2ncccc2c1 (stereo not given) — what was its Activity?
[out] 100

[in] Which Activity value belongs to COc1cc(NC(C)CCCNC(=O)NNC(=O)Nc2cccc(O)c2)c2ncccc2c1 (stereo not given) ?
[out] 100

[in] Requested read-out: Activity. Entry: COc1cc(NC(C)CCCNC(=O)NNC(=O)Nc2cccc(Cl)c2)c2ncccc2c1 (stereo not given)
[out] 95.1

[in] Look up Activity: COc1cc(NC(C)CCCNC(=O)Nc2ccc(Cl)cc2)c2ncccc2c1 (stereo not given)
[out] 37

[in] Requested read-out: Activity. Entry: COc1cc(NC(C)CCCNC(=O)Nc2ccc(Br)cc2)c2ncccc2c1 (stereo not given)
[out] 46.4

[in] Give the measured Activity of COc1cc(NC(C)CCCNC(=O)NNC(=O)Nc2cc(C(F)(F)F)cc(C(F)(F)F)c2)c2ncccc2c1 (stereo not given) .
[out] 88

[in] Item under review: COc1cc(NC(C)CCCNC(=O)Nc2cccc(Cl)c2)c2ncccc2c1 (stereo not given) . Reported Activity?
[out] 35.7

[in] Activity for COc1cc(NC(C)CCCNC(=O)Nc2ccc(C(F)(F)F)cc2)c2ncccc2c1 (stereo not given) ?
[out] 36.4

[in] // lookup Activity for COc1cc(NC(C)CCCNC(=O)Nc2ccc(F)cc2)c2ncccc2c1 (stereo not given)
[out] 24.7

[in] Please give the measured Activity for this molecule: COc1cc(NC(C)CCCNC(=O)Nc2cccc(C(F)(F)F)c2)c2ncccc2c1 (stereo not given)
[out] 47.7

[in] What value of measured Activity is listed for COc1cc(NC(C)CCCNC(=O)Nc2cccc(O)c2)c2ncccc2c1 (stereo not given) ?
[out] 52.3

[in] Quick check: Activity of COc1cc(NC(C)CCCNC(=O)NNC(=O)Nc2cccc(C(F)(F)F)c2)c2ncccc2c1 (stereo not given) ?
[out] 91.2

Cited source for all entries: ChEMBL document CHEMBL3875163
